# Tested On: T1, Human CD138-Fc protein (human, UniProt P18827 23-254)
# T1 construct: also called hCD138-Fc
# T1 sequence: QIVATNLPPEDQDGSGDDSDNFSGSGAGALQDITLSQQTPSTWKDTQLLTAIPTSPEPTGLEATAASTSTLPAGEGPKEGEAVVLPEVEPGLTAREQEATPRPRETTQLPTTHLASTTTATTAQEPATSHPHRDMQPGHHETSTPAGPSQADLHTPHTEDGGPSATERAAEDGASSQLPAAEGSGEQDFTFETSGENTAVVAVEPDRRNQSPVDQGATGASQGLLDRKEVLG
# Experimental Details: summary table; repeats the EC50 (nM) of Table 21, unit not given
Some binders, each annotated with its measured ELISA CD138 Fc binding.
No unit in the answer, only the number.

Worked cases, ELISA CD138 Fc binding given:
binder="F6 f2kf-rep (antibody, V domains shown, Humanized F12P16F6 expressed as whole antibody with human constant regions (kappa light chain)) VH: QVQLQQSGAEVVKPGASVKLSCKASGYTFTSYYLYWVKKAPGQGLDWIGEIYPRSGGTNINEKFLSRVTITADESTSTVYMQLSSLTSEDSAVYYCTRSLLYWGQGTTLTVSS VL: DVVMTQSPLSLSVTLGQPASISCKSSQSLLASDGKTYLNWLQQRPGQSPRRLIYLVSKLDSGVPNRFSGSGSGTDFTLQISRVEAEDVGLYYCWQGAHFPFTFGSGTKLEIKR" experimental_value=0.405
binder="F6 f1ka-rep (antibody, V domains shown, Humanized F12P16F6 expressed as whole antibody with human constant regions (kappa light chain)) VH: QVQLQQSGAEVVKPGASVKLSCKASGYTFTSYYLYWVKKAPGQGLDWIGEIYPRSGGTNINEKFLSRVTLTADTSTSTAYMDLSSLTSEDTAVYYCTRSLLYWGQGTTLTVSS VL: DVVMTQTPLSLSVTPGQPASISCKSSQSLLASDGKTYLNWLLQRPGQSPKRLIYLVSKLDSGVPNRFSGSGSGTDFTLQISRVEAEDVGLYYCMQGAHFPFTFGGGTKVEIKR" experimental_value=0.433
binder="F6 akf-rep (antibody, V domains shown, Humanized F12P16F6 expressed as whole antibody with human constant regions (kappa light chain)) VH: QVQLVQSGAEVVKPGASVKLSCKASGYTFTSYYLYWVKKAPGQGLDWIGEIYPRSGGTNYAEKFQGRVTLTADTSTSTAYLELSSLTSEDTAVYYCTRSLLYWGQGTTLTVSS VL: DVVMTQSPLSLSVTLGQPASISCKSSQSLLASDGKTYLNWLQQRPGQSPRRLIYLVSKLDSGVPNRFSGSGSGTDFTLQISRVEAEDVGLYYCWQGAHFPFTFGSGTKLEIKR" experimental_value=0.879
binder="F6 f1kf-rep (antibody, V domains shown, Humanized F12P16F6 expressed as whole antibody with human constant regions (kappa light chain)) VH: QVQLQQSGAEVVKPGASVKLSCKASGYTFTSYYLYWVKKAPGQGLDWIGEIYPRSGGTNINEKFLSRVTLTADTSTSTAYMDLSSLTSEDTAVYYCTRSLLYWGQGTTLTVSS VL: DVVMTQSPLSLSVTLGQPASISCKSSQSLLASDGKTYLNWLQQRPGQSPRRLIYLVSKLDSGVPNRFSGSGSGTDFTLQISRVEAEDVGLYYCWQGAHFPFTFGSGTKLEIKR" experimental_value=0.225

Then there is this binder:
Q: Provide only the value of recorded ELISA CD138 Fc binding for F6 aks-rep (antibody, V domains shown, Humanized F12P16F6 expressed as whole antibody with human constant regions (kappa light chain)) VH: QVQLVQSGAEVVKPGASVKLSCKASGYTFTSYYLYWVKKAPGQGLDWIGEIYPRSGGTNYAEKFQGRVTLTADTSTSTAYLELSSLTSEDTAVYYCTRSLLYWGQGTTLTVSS VL: DVVMTQTPLSLSVTPGQPASISCKSSQSLLASDGKTYLNWLLQRPGQSPKRLIYLVSKLDSGVPNRFSGSGSGTDFTLQISRVEAEDVGLYYCWQGAHFPFTFGSGTKLEIKR
Result: 0.969
